target: Cytochrome P450 3A4 (Homo sapiens, UniProt P08684)
Sequence (P08684 whole entry): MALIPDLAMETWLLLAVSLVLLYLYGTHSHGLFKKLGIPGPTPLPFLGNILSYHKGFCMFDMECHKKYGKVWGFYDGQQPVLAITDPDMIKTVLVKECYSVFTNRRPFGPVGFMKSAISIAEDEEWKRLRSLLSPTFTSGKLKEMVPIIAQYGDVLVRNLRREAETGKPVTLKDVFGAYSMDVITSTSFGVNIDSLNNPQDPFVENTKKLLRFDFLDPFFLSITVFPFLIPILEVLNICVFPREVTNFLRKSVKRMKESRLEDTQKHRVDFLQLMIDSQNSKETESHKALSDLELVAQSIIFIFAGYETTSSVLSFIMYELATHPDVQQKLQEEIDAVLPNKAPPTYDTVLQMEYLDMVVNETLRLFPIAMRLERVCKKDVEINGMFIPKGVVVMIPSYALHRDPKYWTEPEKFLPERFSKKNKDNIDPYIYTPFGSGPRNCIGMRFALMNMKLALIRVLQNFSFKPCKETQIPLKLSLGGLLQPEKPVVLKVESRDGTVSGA
pIC50: −log10 of the molar value.
MEASUREMENT LABEL: pIC50

Kindly note: Cytochrome P450 3A4 (Homo sapiens, UniProt P08684), Cc1cc(/C=C/C#N)cc(C)c1Oc1ccnc(Nc2ccc(N3CCS(=O)(=O)CC3)c(F)c2)n1 , pIC50 value reported: < 4.00

###

assay: Selectivity index, ratio of CC50 for human MT4 cells to EC50 for antiviral activity against HIV RES056
Assignment: determine reported selectivity ratio for the given compounds.

Solved entries (count: 8):
{"columns": ["SMILES ENTRY", "TEST VALUE"],
 "data": [
  ["Cc1cc(C#N)cc(C)c1Oc1ccnc(Nc2ccc(N3CCN(S(C)(=O)=O)CC3)c(F)c2)n1", "< 1"],
  ["Cc1cc(/C=C/C#N)cc(C)c1Oc1ccnc(Nc2ccc(N3CCN(S(C)(=O)=O)CC3)c(F)c2)n1", 5],
  ["Cc1cc(/C=C/C#N)cc(C)c1Oc1ccnc(Nc2ccc(N3CCS(=O)(=O)CC3)c(F)c2)n1", 86],
  ["Cc1cc(C#N)cc(C)c1Oc1ccnc(Nc2ccc(N3CCN(S(=O)(=O)C(C)C)CC3)c(F)c2)n1", "< 1"],
  ["Cc1cc(/C=C/C#N)cc(C)c1Oc1ccnc(Nc2ccc(N3CCN(S(=O)(=O)N(C)C)CC3)cc2)n1", "< 1"],
  ["Cc1cc(/C=C/C#N)cc(C)c1Oc1ccnc(Nc2ccc(C3CCN(S(C)(=O)=O)CC3)cc2)n1", "< 1"],
  ["Cc1cc(/C=C/C#N)cc(C)c1Oc1ccnc(Nc2ccc(N3CCN(S(=O)(=O)N(C)C)CC3)c(F)c2)n1", "< 1"],
  ["CCS(=O)(=O)N1CCN(c2ccc(Nc3nccc(Oc4c(C)cc(/C=C/C#N)cc4C)n3)cc2F)CC1", 64]
]}

# batch size: 2; output selectivity ratio per entry
1. Cc1cc(/C=C/C#N)cc(C)c1Oc1ccnc(Nc2ccc(N3CCN(S(=O)(=O)C(C)C)CC3)c(F)c2)n1
2. Cc1cc(/C=C/C#N)cc(C)c1Oc1ccnc(Nc2ccc(N3CCN(S(=O)(=O)C4CC4)CC3)cc2)n1

1: 3; 2: < 1

# batch size: 6; output selectivity ratio per entry
1. Cc1cc(/C=C/C#N)cc(C)c1Oc1ccnc(Nc2ccc(N3CCN(S(=O)(=O)C(C)C)CC3)cc2)n1
2. Cc1cc(/C=C/C#N)cc(C)c1Oc1ccnc(Nc2ccc(N3CCN(S(C)(=O)=O)CC3)cc2)n1
3. Cc1cc(/C=C/C#N)cc(C)c1Oc1ccnc(Nc2ccc(N3CC[S+]([O-])CC3)c(F)c2)n1
4. Cc1cc(/C=C/C#N)cc(C)c1Oc1ccnc(Nc2ccc(C3CCN(S(=O)(=O)C(C)C)CC3)cc2)n1
5. Cc1cc(/C=C/C#N)cc(C)c1Oc1ccnc(Nc2ccc(N3CCOCC3)c(F)c2)n1
6. Cc1cc(/C=C/C#N)cc(C)c1Oc1ccnc(Nc2ccc(C3CCN(S(=O)(=O)N(C)C)CC3)cc2)n1

1: < 1; 2: < 1; 3: 10; 4: < 1; 5: 272; 6: < 1

src = ChEMBL document CHEMBL5620408
